Source of measurements: ChEMBL document CHEMBL5131394

MEASURED_ON: Serine/threonine-protein kinase PLK1 (Homo sapiens, UniProt P53350)
Sequence (P53350 whole entry): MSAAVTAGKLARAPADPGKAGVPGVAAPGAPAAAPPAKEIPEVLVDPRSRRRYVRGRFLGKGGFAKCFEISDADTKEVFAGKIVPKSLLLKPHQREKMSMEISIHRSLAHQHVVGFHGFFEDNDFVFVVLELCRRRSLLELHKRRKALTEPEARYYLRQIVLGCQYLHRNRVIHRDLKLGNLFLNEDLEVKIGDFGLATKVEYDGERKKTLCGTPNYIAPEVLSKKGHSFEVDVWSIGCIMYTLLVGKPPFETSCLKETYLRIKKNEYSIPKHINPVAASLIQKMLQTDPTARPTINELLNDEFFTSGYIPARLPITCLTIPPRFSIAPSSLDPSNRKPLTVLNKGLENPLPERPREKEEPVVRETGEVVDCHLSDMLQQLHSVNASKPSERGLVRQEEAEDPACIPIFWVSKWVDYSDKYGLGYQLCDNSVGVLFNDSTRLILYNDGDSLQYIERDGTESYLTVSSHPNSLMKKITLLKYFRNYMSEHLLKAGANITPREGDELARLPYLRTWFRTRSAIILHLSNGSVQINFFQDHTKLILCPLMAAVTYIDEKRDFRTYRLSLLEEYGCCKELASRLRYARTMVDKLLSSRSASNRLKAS
METHOD_NOTES: Binding affinity to recombinant human N-terminal GST-tagged PLK1-PBD (367 to 603 end residue) expressed in Escherichia coli using MAGPMQS[pT]PLNGAKK as substrate incubated for 45 mins by fluorescence polarization assay
pIC50: −log10 of the molar value.
Examples of compounds with documented pIC50 follow.
TEST_READOUT: pIC50

{"columns": ["SMILES_STR", "READOUT_RELATION", "TEST_VALUE"],
 "data": [
  ["CCCCCCCCc1ccc(C(=O)Nc2ccccc2S(N)(=O)=O)cc1", "=", 3.59],
  ["CCCCc1ccc(C(=O)Nc2ccccc2C(=O)O)cc1", "<", 3.22],
  ["CCCCCCCCc1ccc(C(=O)Nc2cccc(C(F)(F)F)c2C(=O)O)cc1", "=", 4.53]
]}

---

Examples of compounds with documented log10(IC50) follow.
MEASURED_ON: Serine/threonine-protein kinase PLK1 (Homo sapiens)
METHOD_NOTES: Binding affinity to recombinant human N-terminal GST-tagged PLK1-PBD (367 to 603 end residue) expressed in Escherichia coli using MAGPMQS[pT]PLNGAKK as substrate incubated for 45 mins by fluorescence polarization assay
TEST_READOUT: log10(IC50) (log10 of the value in µM)

{"columns": ["SMILES_STR", "log10(IC50)"],
 "data": [
  ["CCCCCCCCc1ccc(C(=O)Nc2cc(F)cc(F)c2C(=O)O)cc1", 1.49],
  ["CCCCCCCCc1ccc(C(=O)Nc2cccc(O)c2C(=O)O)cc1", 0.90],
  ["CCCCCCCCc1ccc(CCNc2ccccc2C(=O)O)cc1", 2.07],
  ["CCCCCCCCc1ccc(C(=O)Nc2ccc(C)cc2C(=O)O)cc1", 0.34],
  ["CCCCCCCCc1ccc(C(=O)Nc2cccc(Cl)c2C(=O)O)cc1", 1.40],
  ["CCCCCCCCc1ccc(C(=O)Nc2cccc(F)c2C(=O)O)cc1", 1.05],
  ["CCCCCCCCc1ccc(CNc2cc(C)ccc2C(=O)O)cc1", 1.34],
  ["CCCCCCCCc1ccc(CNc2ccccc2C(=O)O)cc1", 0.99]
]}

---

Examples of molecules with documented IC50 follow.
MEASURED_ON: Serine/threonine-protein kinase PLK1 (Homo sapiens)
METHOD_NOTES: Binding affinity to recombinant human N-terminal GST-tagged PLK1-PBD (367 to 603 end residue) expressed in Escherichia coli using MAGPMQS[pT]PLNGAKK as substrate incubated for 45 mins by fluorescence polarization assay
TEST_READOUT: IC50 (µM)

{"columns": ["SMILES_STR", "TEST_READOUT", "READOUT_RELATION", "TEST_VALUE"],
 "data": [
  ["CCCCCCCCc1ccc(C(=O)Nc2c(O)cccc2C(=O)O)cc1", "IC50", "=", 12],
  ["CCCCCCCCc1ccc(C(=O)Nc2ccccc2B(O)O)cc1", "IC50", ">", 600],
  ["CCCCCCCCc1ccc(CNc2cccc(F)c2C(=O)O)cc1", "IC50", "=", 18.8],
  ["CCCCCCCCc1ccc(C(=O)Nc2cccc(OP(=O)(O)O)c2)cc1", "IC50", "=", 98.3],
  ["CCCCCCCCc1ccc(CNc2ccc(C)cc2C(=O)O)cc1", "IC50", ">", 600],
  ["CCCCCCCCc1ccc(C(=O)Nc2cccc([N+](=O)[O-])c2C(=O)O)cc1", "IC50", "=", 6.1],
  ["CCCCCc1ccc(C(=O)Nc2ccccc2C(=O)O)cc1", "IC50", "=", 224],
  ["CCCCCCCCc1ccc(C(=O)Nc2cccc(OC)c2C(=O)O)cc1", "IC50", "=", 29.6],
  ["CCCCCCCCc1ccc(C(=O)Nc2ccc(OC)cc2C(=O)O)cc1", "IC50", "=", 5.9],
  ["CCCCCCCCc1ccc(C(=O)Nc2ccccc2C(=O)OCC)cc1", "IC50", ">", 600],
  ["CCCCCCCCc1ccc(C(=O)Nc2cc(C)ccc2C(=O)O)cc1", "IC50", "=", 4]
]}
